measurement-target: T1, PGMVKSK(biotin) peptide (PGXVKSK(biotin), X = Met)
T1 construct: also called Met at P3
T1 peptide: PGMVKSK(Biotin)
test: BLI, biotinylated peptide on streptavidin biosensor
No end group written: not given here. *: point of attachment. Biotin = O=C1N[C@H]2[C@H](CS[C@H]2CCCCC(=O)*)N1
outcome-measure: % of steady-state BLI response relative to PGLVKSK(biotin)

Some solved cases for reference:
1. GID4 A252V-S283F double mutant variant (residues 116-300), purified with N-terminal His-tag (designed binder, also called A252V-S283F mutant; not shown: N-terminal six-histidine tag and TEV protease recognition site from the pET21(+) construct) GVATSLLYSGSKFRGHQKSKGNSYDVEVVLQHVDTGNSYLCGYLKIKGLTEEYPTLTTFFEGEIISKKHPFLTRKWDADEDVDRKHWGKFLAFYQYAKSFNSDDFDYEELKNGDYVFMRWKEQFLVPDHTIKDISGVSFAGFYYICFQKSAASIEGYYYHRSSEWYQFLNLTHVPEHSAPIYEFR: > 69%
2. GID4 A252V variant (residues 116-300), purified with N-terminal His-tag (designed binder, not shown: N-terminal six-histidine tag and TEV protease recognition site from the pET21(+) construct) GVATSLLYSGSKFRGHQKSKGNSYDVEVVLQHVDTGNSYLCGYLKIKGLTEEYPTLTTFFEGEIISKKHPFLTRKWDADEDVDRKHWGKFLAFYQYAKSFNSDDFDYEELKNGDYVFMRWKEQFLVPDHTIKDISGVSFAGFYYICFQKSAASIEGYYYHRSSEWYQSLNLTHVPEHSAPIYEFR: > 60%

Consider the record given below.
response.value for GID4 A252V-S253T double mutant variant (residues 116-300), purified with N-terminal His-tag (designed binder, also called A252V-S253T mutant; not shown: N-terminal six-histidine tag and TEV protease recognition site from the pET21(+) construct) GVATSLLYSGSKFRGHQKSKGNSYDVEVVLQHVDTGNSYLCGYLKIKGLTEEYPTLTTFFEGEIISKKHPFLTRKWDADEDVDRKHWGKFLAFYQYAKSFNSDDFDYEELKNGDYVFMRWKEQFLVPDHTIKDISGVTFAGFYYICFQKSAASIEGYYYHRSSEWYQSLNLTHVPEHSAPIYEFR (field: % of steady-state BLI response relative to PGLVKSK(biotin)) = > 69%
